- Assay info: Toxicity index, ratio of MTC for 24 to 72 hrs post fertilized zebra fish embryo harboring fli1:EGFP to MEC for antiangiogenic activity in 24 to 72 hrs post fertilized zebra fish embryo harboring fli1:EGFP
- Assay type: organism-based, Danio rerio
- Study conditions: fli1:EGFP transgenic, zebrafish, in vivo
Reported endpoint: selectivity ratio
Reply: number alone, nothing else.

Some entries whose results are on file:
O=c1cc(-c2ccccc2)oc2cc(O)c(OCCCCCCO)c(O)c12    1
CC(C)=CCOc1cc2oc(-c3ccccc3)cc(=O)c2c(O)c1O    1
Cc1cc(C)c(/C=C2\C(=O)Nc3ccccc32)[nH]1    1.5
O=c1cc(-c2ccccc2)oc2cc(O)c(OCCCCCO)c(O)c12    1
O=C(COc1c(OCc2ccccc2)cc2oc(-c3ccccc3)cc(=O)c2c1O)N1CCCC1    1

Assign selectivity ratio to the following record: `O=C(COc1c(OCc2ccccc2)cc2oc(-c3ccccc3)cc(=O)c2c1O)N1CCN(c2ncccn2)CC1`
1
